target: human IGF-1 (human) (UniProt P05019); test: specificity phage ELISA
Sequence (P05019 49-118 limits assumed): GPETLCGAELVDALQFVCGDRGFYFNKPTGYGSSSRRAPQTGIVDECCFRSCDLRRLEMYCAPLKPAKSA
REPORTED PROPERTY: ELISA signal at 450 nm

- BINDER: "G31 (Fab, V domains shown) VH: EVQLVESGGGLVQPGGSLRLSCAASGFSIWWSWIHWVRQAPGKGLEWVASIYPSSGYTSYADSVKGRFTISADTSKNTAYLQMNSLRAEDTAVYYCARWWSSALDYWGQGTLVTVSS VL: DIQMTQSPSSLSASVGDRVTITCRASQDVNTAVAWYQQKPGKAPKLLIYSASSLYSGVPSRFSGSRSGTDFTLTISSLQPEDFATYYCQQSWWSPSTFGQGTKVEIK"
  ELISA signal at 450 nm: 0.26

Kindly consider the entry below.
Item under review: G32 (Fab, V domains shown) VH: EVQLVESGGGLVQPGGSLRLSCAASGFSIWWSWIHWVRQAPGKGLEWVASISPSSGWTSYADSVKGRFTISADTSKNTAYLQMNSLRAEDTAVYYCARWWSSGMDYWGQGTLVTVSS VL: DIQMTQSPSSLSASVGDRVTITCRASQDVNTAVAWYQQKPGKAPKLLIYSASSLYSGVPSRFSGSRSGTDFTLTISSLQPEDFATYYCQQWWWWPWTFGQGTKVEIK . Reported ELISA signal at 450 nm? 0.52
